Test system: TK-10 renal
Assay: NCI tumour cell line growth inhibition, 48 h
measurement.kind: TGI

The molecule CCOC(=O)c1csc(C(CSCc2ccc(OC)cc2)N2C(=O)c3ccccc3C2=O)n1 (stereo unspecified) showed TGI equal to > 100 µM

So for "O=C(/C=C/c1ccccc1)c1cc(C(=O)/C=C/c2ccccc2)c(O)cc1O" , the logged TGI turned out to be > 100 µM

TGI in this record for "CN(C)c1cc2c(Nc3ccc4c(cnn4Cc4ccccc4)c3)ncnc2cn1" : > 23.2 µM

The molecule listed as "CN(C)C(=S)/N=c1\ssc(=S)n1Cc1ccco1" shows TGI equal to > 100 µM

GET /value?item= "O=c1oc2ccccc2c(O)c1C(c1cccc(C(c2c(O)c3ccccc3oc2=O)c2c(O)c3ccccc3oc2=O)c1)c1c(O)c2ccccc2oc1=O" &field=TGI returns > 100 µM

# molecule Cc1ccc2c(n1)NC(=O)C(Cc1ccccc1)(N=[N+]=[N-])C2=O (stereo unspecified) ; its TGI = > 100 µM

Value of TGI reported for the molecule "CC1(C)OC[C@H](COCOP2(=O)Oc3ccc4ccccc4c3-c3c(ccc4ccccc34)O2)O1" is 35.6 µM

# molecule COc1cc(C2c3cc4c(cc3[C@@H](Nc3ccc([N+](=O)[O-])cc3)C3COC(=O)[C@H]23)OCO4)cc(OC)c1O (stereo partly specified) ; its TGI = 6.97 µM

For record "CNC(=O)CCCNC(=O)CCCCC(=O)N(C)C" the listed TGI is > 100 µM

Quick note, TGI for "COc1ccc(CCc2ccc3c(c2)OCO3)cc1" landed at > 100 µM

// TGI value for "COC(=O)c1c2c(c(C)[n+]([O-])c1C)C(=O)C(NCc1ccc(F)cc1)=CC2=O" : 36.7 µM

TGI reading for "Cc1ccc(Nc2nc(=O)c3c([nH]c4ccccc43)s2)cc1" : 23.9 µM

Recorded result, "N#Cc1c(N)nc(SCc2ccccc2)c(C#N)c1-c1ccc(O)cc1" , TGI: > 64.7 µM

TGI recorded for this molecule, "CC(C)(C)n1c(=O)n(-c2ccccc2)n(C(C)(C)C)c1=O" , is > 100 µM

Per the record, "Cc1cc2c(nn1)CCc1c-2no[n+]1[O-]" has TGI of > 100 µM

Reported TGI of "CC(C)c1[nH]nc2c(NCc3ccc(-c4ccccn4)cc3)nc(SCCN)nc12" : 10.1 µM

Value of measured TGI for the entry "O=C1N/C(=N\N=C\c2ccccc2)C2(CCCCC2)O1" : > 100 µM

get_value(item= "COc1ccc(-c2c(-c3ccccc3)c(C)nc3[nH]c(=S)[nH]c(=S)c23)cc1OC" , readout=TGI) returns > 100 µM

Form: molecule = "Cc1ccc(N=Nc2c(O)ccc3n[nH]nc23)cc1" ; TGI = 73.5 µM

Sample "COC(=O)CSc1nc2[nH]c(SC)c(C(N)=O)c2c(=O)n1-c1ccccc1" ; TGI observed: > 10 µM

// sample "C[C@@H](NC(=O)Cn1c(Cl)nc2ccccc21)c1ccccc1" , its TGI was > 100 µM

* * *

System: IGROV1 ovarian
Assay: NCI tumour cell line growth inhibition, 48 h; in the data active means GI50 below about 0.43 µM; inactive means the rest
Give your call using only these classes: yes = active, no = inactive

input: Recorded test outcome, item "CCC[CH2][Sn]([CH2]CCC)([O]C(=O)c1cc(F)ccc1F)[O]C(=O)c1cc(F)ccc1F"
output: no

input: State the result this test recorded for "CC(=O)CCc1ccc(Oc2c3c(nc4ccccc24)OCC3)cc1" .
output: no

input: What is the recorded call for this molecule in the test? "O=C1C(Cl)=C(Nc2cc(Cl)ccc2O)C(=O)N1Cc1ccccc1"
output: no

input: Write down the call the test reported for this molecule. Item: "Cc1cc(Cl)nc(N(CCCNc2ccnc3cc(Cl)ccc23)Cc2cccs2)n1"
output: no

input: Could you check what this test reported for "Cc1ccc(-c2c3c(nn2-c2ccc(S(=O)(=O)NC(=O)NC4CCCCC4)cc2)-c2ccccc2C3)cc1" ?
output: no

input: State the result this test recorded for "CN(C)c1cc2c(Nc3ccc4c(cnn4Cc4ccccc4)c3)ncnc2cn1" .
output: no

input: # lookup: test call for "c1cc(C2CCCCC2)ccc1-c1cnc2nonc2n1"
output: no

input: Hi team, can someone confirm the assay call for COc1ccc(/C=C\c2cc(OC)c(OC)c(OC)c2)cc1OC(=O)CC(N)C(=O)O (stereo not given) ?
output: yes

input: How was "O=C(NCc1ccco1)C1CCN(S(=O)(=O)c2ccc(Cl)cc2)CC1" classified in this test?
output: no

input: What did this assay record as the result for "COc1cc2c3c(n(CCN4CCOCC4)c(=O)c2cc1OC)-c1ccccc1C3=O" ?
output: no

* * *

Would you kindly list TGI for each of these compounds?
Test system: HS 578T breast
Experiment: NCI tumour cell line growth inhibition, 48 h

Reported TGI ( "CO[C@@H]1C[C@H]2[C@@H]3CC[C@H]([C@H](C)COC(C)=O)[C@@]3(C)CC[C@@H]2[C@@]2(C)CC[C@H]3C[C@]312" ) = > 100 µM

Per the records, this compound ( "C/C(O)=C(\C=NC(=S)c1cccnc1)C(=O)Nc1ccccc1C" ) has TGI equal to > 100 µM

# TGI of "CC(C)(C)C1=CC(=C2C=Cc3cc(O)ccc3O2)C=C(C(C)(C)C)C1=O" = 8.22 µM

For this compound ( "O=[N+]([O-])c1cccc(-c2cn3c(n2)Cc2ccccc2C3)c1" ), measured TGI is > 100 µM

According to the records, this compound "CC(=O)O[C@H]1CC[C@H]2[C@@H]3CCC4=C/C(=N/OCCN(C)C)CC[C@]4(C)[C@H]3CC[C@]12C" displays TGI of 34.1 µM

# TGI of "Cc1cccc(Nc2nc3ccccc3nc2NS(=O)(=O)c2ccccc2)c1" = > 100 µM

Briefly, TGI measured for C=C1CCC2[C@](C)(CCC[C@]2(C)C(=O)O)[C@@H]1CCc1ccoc1 (some centres undefined) : 80.3 µM

// TGI value for "CC(=O)O[C@@H]1C2=C(C)C3(CC3)[C@@](C)(O)C(=O)C2=C[C@@]1(C)CO" : 5.75 µM

TGI for "c1cc(C2CCCCC2)ccc1-c1cnc2nonc2n1" is > 58.3 µM

Field TGI (entry "C[C@@H](NC(=O)Cn1c(Cl)nc2ccccc21)c1ccccc1" ) reads > 100 µM

Record summary for "Cn1c2c(c3ccccc3c1=O)C(=O)c1ccccc1-2" : reported TGI = > 100 µM

Reported TGI of "C=CCc1oc(C)nc1CCCC" : > 100 µM

TGI reported for this compound "CSc1ncc2c(C#N)c3[nH]c4ccccc4n3c(=O)c2n1" : > 100 µM

Noted for "Cc1ccc2c(=O)c(-c3nnc(NC4CCCCC4)s3)c[nH]c2n1" : its TGI reads > 100 µM

* * *

Please provide measured log10(TGI) for the entries that follow.
System: LOX IMVI melanoma
Assay: NCI tumour cell line growth inhibition, 48 h
The base-10 logarithm of TGI, taken with TGI in µM, is what appears here.

Summary line: "C#CCOc1cccc(Nc2ncnc3cc(NC(=O)C=C)ccc23)c1" , LOX IMVI melanoma, reported log10(TGI) = 1.24

Value sought: log10(TGI), system LOX IMVI melanoma, item Nc1nc(Cl)c(N)c(NCC2(CO)CCC(CCc3ccccc3)C2)n1 (stereo not drawn) . Result: 1.41

Param item: "COc1ccc2c(CCCc3ccc(Cl)cc3Cl)c3[n+](cc2c1OC)CCc1cc2c(cc1-3)OCO2" ; param system: LOX IMVI melanoma; output log10(TGI): 0.16

# value of log10(TGI), LOX IMVI melanoma, item "CCOC(=O)/C(C#N)=C\Sc1ccccc1" = 1.33

Result for OC(CN1CCCC2CCCCC21)c1cc2ccccc2c2ccccc12 (stereo not drawn) , tested on LOX IMVI melanoma, log10(TGI): 0.47

Test item CCCCCCCCCC(=O)NC(CCC(=O)N(CCNC(=O)c1nc(-c2ccccc2)oc1-c1ccccc1)Cc1ccccc1)C(=O)O (stereo not drawn) ; LOX IMVI melanoma; reported log10(TGI) was 1.56

Entry CC(=O)N1C(CCc2ccccc2)CC(C)(C=O)C1Cc1ccc(O[Si](C(C)C)(C(C)C)C(C)C)cc1 (stereo not drawn) ; assay system LOX IMVI melanoma; log10(TGI) recorded at 0.59

Observed log10(TGI) on LOX IMVI melanoma, entry "O=C1C=C(NCC(c2ccccc2)c2ccccc2)C(=O)c2ncccc21" , equals 0.72

Form field log10(TGI) for item "Cc1cc(S(=O)(=O)NC2=NCCCN2)c(S)cc1Cl" on LOX IMVI melanoma: 1.63

Value (log10(TGI), LOX IMVI melanoma) for record "c1cc(C2CCCCC2)ccc1-c1cnc2nonc2n1" = 0.24

Assay LOX IMVI melanoma, sample "NNC(=O)c1cc([N+](=O)[O-])ccc1NC(=O)C12CC3CC(CC(C3)C1)C2" , log10(TGI) read: 1.30

The measured log10(TGI) that "Cc1cc2c3c([n+](C)c4ccc(F)cc4c3c1)-c1cc(F)ccc1N2C" showed for LOX IMVI melanoma is 1.84

Lab entry: LOX IMVI melanoma assay, compound "COC(=O)[C@@H](NC(=O)[C@H](N)Cc1ccc(N(CCCl)CCCl)cc1)C(C)C" , log10(TGI) = 1.58

Entry "C=CC(=O)Nc1ccccc1CC(c1c[nH]c2ccccc12)c1c[nH]c2ccccc12" , tested on LOX IMVI melanoma, has a reported log10(TGI) of 1.56

Test item "O=C(N=Nc1c(Cl)c(O)c2ccccc2c1O)C(=O)Nc1cccc(C(F)(F)F)c1" ; LOX IMVI melanoma; reported log10(TGI) was 0.71

Given the compound "COC(=O)c1ccc(NC(=O)c2ccc(NC3=C(Cl)C(=O)N(Cc4ccccc4)C3=O)cc2)cc1" and test system LOX IMVI melanoma, the measured log10(TGI) is 1.41

Item "Cc1cc(Cl)nc(N(CCCNc2ccnc3cc(Cl)ccc23)Cc2cccs2)n1" ; assay system LOX IMVI melanoma; log10(TGI) reported as 0.47

Let me check: "CC(=O)O[C@@H]1C2=C(C)C3(CC3)[C@@](C)(O)C(=O)C2=C[C@@]1(C)CO" , system LOX IMVI melanoma, measured log10(TGI) is 0.65

Reference for the values: PubChem BioAssay (NCI)
